- protocol.notes: molar heat capacity at constant pressure
- run.parameters: 353.15 K; 101.33 kPa; Liquid; Vacuum adiabatic calorimetry

compound: OCCCOCCCO [4-oxa-1,7-heptanediol]
output.unit: J/K/mol
molar heat capacity at constant pressure: 363.8

compound: OCCOCCO [diethylene glycol]
output.unit: J/K/mol
molar heat capacity at constant pressure: 266.8

compound: CC(O)CO (centres undefined) [1,2-propanediol]
output.unit: J/K/mol
molar heat capacity at constant pressure: 215.3

compound: OCCOCCOCCO [triethylene glycol]
output.unit: J/K/mol
molar heat capacity at constant pressure: 359.3

* * *

- protocol.notes: molar heat capacity at constant pressure; xn = mol fraction of the nth substance listed
- run.parameters: 333.15 K; 101 kPa; Liquid; Vacuum adiabatic calorimetry; x1 = 0.5

compound: OCCOCCOCCO [triethylene glycol] + O
molar heat capacity at constant pressure [J/K/mol]: 219.8
//
compound: OCCCOCCCO [4-oxa-1,7-heptanediol] + O
molar heat capacity at constant pressure [J/K/mol]: 219.3
//
compound: CC(O)CO (centres undefined) [1,2-propanediol] + O
molar heat capacity at constant pressure [J/K/mol]: 148.7
//
compound: OCCOCCO [diethylene glycol] + O
molar heat capacity at constant pressure [J/K/mol]: 175.5

* * *

# molar heat capacity at constant pressure annotations
- protocol.notes: molar heat capacity at constant pressure; xn = mol fraction of the nth substance listed
- run.parameters: 313.15 K; 101 kPa; Liquid; Vacuum adiabatic calorimetry; x1 = 0.6

compound: OCCOCCOCCO [triethylene glycol] + O
output.unit: J/K/mol
molar heat capacity at constant pressure: 240.5
//
compound: OCCCOCCCO [4-oxa-1,7-heptanediol] + O
output.unit: J/K/mol
molar heat capacity at constant pressure: 236.2
//
compound: CC(O)CO (centres undefined) [1,2-propanediol] + O
output.unit: J/K/mol
molar heat capacity at constant pressure: 153.9
//
compound: OCCOCCO [diethylene glycol] + O
output.unit: J/K/mol
molar heat capacity at constant pressure: 187.1

* * *

# molar heat capacity at constant pressure annotations
- protocol.notes: molar heat capacity at constant pressure; xn = mol fraction of the nth substance listed
- run.parameters: 333.15 K; 101 kPa; Liquid; Vacuum adiabatic calorimetry; x1 = 0.8

compound: OCCCOCCCO [4-oxa-1,7-heptanediol] + O
molar heat capacity at constant pressure (J/K/mol): 296.6

compound: OCCOCCO [diethylene glycol] + O
molar heat capacity at constant pressure (J/K/mol): 229.1

compound: CC(O)CO (centres undefined) [1,2-propanediol] + O
molar heat capacity at constant pressure (J/K/mol): 185.8

compound: OCCOCCOCCO [triethylene glycol] + O
molar heat capacity at constant pressure (J/K/mol): 300.3

* * *

- protocol.notes: molar heat capacity at constant pressure; xn = mol fraction of the nth substance listed
- run.parameters: 323.15 K; 101 kPa; Liquid; Vacuum adiabatic calorimetry; x1 = 0.4
# molar heat capacity at constant pressure annotations
measured.quantity: molar heat capacity at constant pressure (J/K/mol)

compound: OCCCOCCCO [4-oxa-1,7-heptanediol] + O
recorded.number: 188.2
--
compound: OCCOCCO [diethylene glycol] + O
recorded.number: 153.3
--
compound: OCCOCCOCCO [triethylene glycol] + O
recorded.number: 189
--
compound: CC(O)CO (centres undefined) [1,2-propanediol] + O
recorded.number: 132.1

* * *

- protocol.notes: molar heat capacity at constant pressure; xn = mol fraction of the nth substance listed
- run.parameters: 343.15 K; 101 kPa; Liquid; Vacuum adiabatic calorimetry; x1 = 0.5
± gives the expanded uncertainty stated by the source.
# molar heat capacity at constant pressure annotations
measured.quantity: molar heat capacity at constant pressure

compound: OCCCOCCCO [4-oxa-1,7-heptanediol] + O
result: 223.5 ± 0.4 J/K/mol
//
compound: OCCOCCOCCO [triethylene glycol] + O
result: 223.4 ± 0.4 J/K/mol
//
compound: CC(O)CO (centres undefined) [1,2-propanediol] + O
result: 152.1 ± 0.3 J/K/mol
//
compound: OCCOCCO [diethylene glycol] + O
result: 178.7 ± 0.3 J/K/mol

Values compiled from the NIST ThermoML archive (doi:10.1016/j.tca.2009.01.008).
